Tested on: antibodies in sera from SARS patients (sera 1a, 1b, 2, 6, 37, 62, London, SARS-yellow, SARS-green)
Format: binding, human
Measured Quantity: Binding of serum 2 to linear peptides of protein X4 of SARS-CoV Urbani
Give only the figure.

[[record]]
query_sequence = "QQELYSPLFLIVAAL"
recorded_measurement = 0.5

[[record]]
query_sequence = "SVSPKLFIRQEEVQQ"
recorded_measurement = 0.3

[[record]]
query_sequence = "VQQELYSPLFLIVAA"
recorded_measurement = 0.6

[[record]]
query_sequence = "TSTHFAFACADGTRH"
recorded_measurement = 0.5

[[record]]
query_sequence = "IVFTSCELYHYQECV"
recorded_measurement = 0.6

[[record]]
query_sequence = "SCELYHYQECVRGTT"
recorded_measurement = 0.4

[[record]]
query_sequence = "EVQQELYSPLFLIVA"
recorded_measurement = 0.4

[[record]]
query_sequence = "YSPLFLIVAALVFLI"
recorded_measurement = 0.5


Noted for EEVQQELYSPLFLIV : its Binding of serum 2 to linear peptides of protein X4 of SARS-CoV Urbani reads 0.6
